- TEST_NAME: Miscibility evaluation: blue light blocking compound dissolved in HEMA and in a silicone hydrogel contact lens composition
- Format: physicochemical
- PARTICULARS: composition with hydrophilic monomer, first siloxane monomer and second siloxane monomer; the higher the value, the greater the miscibility
ENDPOINT_NAME: miscibility in silicone hydrogel contact lens composition (%)

Here are 2 compounds together with their reported answers.
COMPOUND: C=CS(=O)(=O)c1cc(OC)c(/N=N/C2C(=O)N(c3ccc(S(=O)(=O)[O-])cc3)N=C2C)cc1C.[Na+] (stereo not shown) [Comparative Example 1, reference compound]
VALUE: 0.1
//
COMPOUND: C=C(C)C(=O)OCCOC(=O)C(=Cc1ccc(N(C)C)cc1)C(=O)OCCOC(=O)C(=C)C
VALUE: 4.6

I. C=C(C)C(=O)OCCOC(=O)/C(=C/c1ccc(N(C)C)cc1)C(=O)OC
II. C=C(C)C(=O)OCCNC(=O)/C(=C/c1ccc(N(C)C)cc1)C(=O)OC
Between I and II , which one has the lower reported miscibility in silicone hydrogel contact lens composition value? Give the label of your selection.
II
(II: 1.5%, I: 4.0%)
